Recorded values, source patent US8846699B2.

System: skin cancer cell line, A431
PROTOCOL_SUMMARY: Inhibitory effect on growth of cancer cell line A431, SRB
Type: cell-based
MEASUREMENT_CONDITIONS: Homo sapiens, A-431, 72 h, overexpressed EGFR1 (HER-1)
PARAMETER: pIC50
pIC50 (log units): -log10 of the concentration in mol/L.

Illustrative cases are given below, each with its answer.
COMPOUND	RESULT
C=CC(=O)Nc1cc2c(Nc3ccc(Br)cc3F)ncnc2cc1OCCCNC(=O)NCC [Example 16]	7.74
C=CC(=O)Nc1cc2c(Nc3ccc(Br)cc3F)ncnc2cc1OCCNC(=O)C=CC [Example 50]	7.82
C=CC(=O)Nc1cc2c(Nc3ccc(Br)cc3F)ncnc2cc1OCCN(C)C [Example 19]	7.41
C=CC(=O)Nc1cc2c(Nc3ccc(Br)cc3F)ncnc2cc1OCC1CCN(C(=O)NC(C)(C)C)CC1 [Example 11]	7.23

Inquiry: Give the measured pIC50 of C=CC(=O)Nc1cc2c(Nc3ccc(Br)cc3F)ncnc2cc1OCC1CNC(=O)O1 (centres unmarked) [Example 91] .
Reply text: 7.82

Inquiry: Give the measured pIC50 of C=CC(=O)Nc1cc2c(Nc3ccc(Br)cc3F)ncnc2cc1OCC1CCN(C(=O)NCCC)CC1 [Example 9] .
Reply text: 7.29

Inquiry: Give the measured pIC50 of C=CC(=O)Nc1cc2c(Nc3ccc(Br)c(F)c3F)ncnc2cc1OCCNC(=O)CCN(CC)CC [Example 125] .
Reply text: 7.66

Inquiry: Give the measured pIC50 of C=CC(=O)Nc1cc2c(Nc3cc(Cl)c(Cl)cc3F)ncnc2cc1OCCNC(=O)COC [Example 138] .
Reply text: 7.68

====

compounds and their reported pIC50
SUBJECT_OF_TEST: VEGFR2 (KDR) (Homo sapiens (Human))
pIC50 (log units): -log10 of the concentration in mol/L.

C=CC(=O)Nc1cc2c(Nc3ccc(Br)cc3F)ncnc2cc1OCCNC(=O)C1CC1 6.29
C=CC(=O)Nc1cc2c(Nc3ccc(Br)cc3F)ncnc2cc1OCCNS(C)(=O)=O 6.43
C=CC(=O)Nc1cc2c(Nc3ccc(Br)cc3F)ncnc2cc1OCCNC(=O)C=CCC 6.45

Let us examine a further case.
Inquiry: Give the measured pIC50 of "C=CC(=O)Nc1cc2c(Nc3ccc(Br)cc3F)ncnc2cc1OCCNC(=O)CCN(CC)CC" .
Reply text: 6.70

====

Data export: pIC50 values recorded with VEGFR2 (KDR) (Homo sapiens (Human), UniProt P35968).
Sequence (P35968 20-1356): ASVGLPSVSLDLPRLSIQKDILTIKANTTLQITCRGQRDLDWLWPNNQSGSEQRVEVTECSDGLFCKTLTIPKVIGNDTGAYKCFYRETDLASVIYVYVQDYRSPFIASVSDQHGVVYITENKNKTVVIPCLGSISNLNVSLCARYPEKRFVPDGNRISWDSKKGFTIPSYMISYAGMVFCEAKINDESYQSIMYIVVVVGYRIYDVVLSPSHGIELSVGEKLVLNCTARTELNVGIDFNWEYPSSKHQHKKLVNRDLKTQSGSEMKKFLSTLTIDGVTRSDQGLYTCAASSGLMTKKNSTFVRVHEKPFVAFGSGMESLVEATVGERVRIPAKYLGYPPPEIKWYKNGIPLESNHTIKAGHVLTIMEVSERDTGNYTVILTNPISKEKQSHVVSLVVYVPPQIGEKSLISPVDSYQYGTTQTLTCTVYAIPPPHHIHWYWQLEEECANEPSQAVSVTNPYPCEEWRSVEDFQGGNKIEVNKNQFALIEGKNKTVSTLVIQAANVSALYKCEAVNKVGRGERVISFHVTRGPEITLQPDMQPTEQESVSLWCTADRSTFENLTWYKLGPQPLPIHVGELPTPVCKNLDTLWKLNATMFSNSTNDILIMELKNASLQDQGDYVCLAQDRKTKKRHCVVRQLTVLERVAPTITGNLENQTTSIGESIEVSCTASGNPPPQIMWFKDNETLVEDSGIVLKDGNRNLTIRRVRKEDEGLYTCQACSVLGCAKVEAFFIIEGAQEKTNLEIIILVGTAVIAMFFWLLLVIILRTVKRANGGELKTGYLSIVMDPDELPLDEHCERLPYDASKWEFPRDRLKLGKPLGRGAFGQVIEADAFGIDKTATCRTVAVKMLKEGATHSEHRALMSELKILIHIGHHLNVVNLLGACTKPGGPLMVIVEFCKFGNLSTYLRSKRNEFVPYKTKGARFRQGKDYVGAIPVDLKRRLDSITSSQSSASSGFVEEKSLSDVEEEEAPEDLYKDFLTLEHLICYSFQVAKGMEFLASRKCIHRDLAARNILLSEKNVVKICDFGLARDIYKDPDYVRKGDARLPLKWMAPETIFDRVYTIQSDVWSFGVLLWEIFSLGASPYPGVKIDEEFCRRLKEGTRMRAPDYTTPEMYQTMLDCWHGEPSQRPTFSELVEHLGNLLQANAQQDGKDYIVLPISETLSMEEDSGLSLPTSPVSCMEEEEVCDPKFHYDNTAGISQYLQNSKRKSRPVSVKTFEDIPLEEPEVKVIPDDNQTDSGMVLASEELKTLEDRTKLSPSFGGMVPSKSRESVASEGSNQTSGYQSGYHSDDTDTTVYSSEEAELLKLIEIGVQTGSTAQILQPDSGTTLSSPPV
pIC50 (log units): -log10 of the concentration in mol/L.

MOLECULE	pIC50
C=CC(=O)Nc1cc2c(Nc3ccc(Br)cc3F)ncnc2cc1OCCNC(=O)CCOC [Example 64]	6.64
C=CC(=O)Nc1cc2c(Nc3ccc(Br)c(Cl)c3F)ncnc2cc1OC[C@@H](C)NC(=O)CN(C)C [Example 164]	6.15
C=CC(=O)Nc1cc2c(Nc3ccc(Br)cc3F)ncnc2cc1OCCCNC(C)=O [Example 13]	6.80
C=CC(=O)Nc1cc2c(Nc3ccc(Br)c(F)c3)ncnc2cc1OCCNC(=O)CN(C)C [Example 79]	5.84
C=CC(=O)Nc1cc2c(Nc3ccc(Br)cc3F)ncnc2cc1OCC(C)NC(=O)CN(C)C (centres unmarked) [Example 153]	6.36

Inquiry: Give the measured pIC50 of C=CC(=O)Nc1cc2c(Nc3ccc(Br)cc3F)ncnc2cc1OCCCNC(=O)CN(C)C [Example 12] .
Reply text: 6.46

Inquiry: Give the measured pIC50 of C=CC(=O)Nc1cc2c(Nc3ccc(Br)c(F)c3F)ncnc2cc1OCCNC(=O)CN(C)C [Example 124] .
Reply text: 6.87
